- Tested on: TNF-α
- ASSAY_INFO: TNF-α inhibition assay, LPS-induced PBMCs / CD14+ monocytes (Meso Scale)
- Assay type: cell-based
- CONDITION_NOTES: 1 h pretreatment, 100 ng/mL LPS 18-24 h
REPORTED_ENDPOINT: inhibition at 1 µM

Query the reported inhibition at 1 µM for TNF-α; item: CC(C)(C)c1cnc(CSc2cnc(NC(=O)C3CCN(CCOCCOCCOCCOCCNCC(=O)NCc4scc5c4CN(C4CCC(=O)NC4=O)C5=O)CC3)s2)o1 (stereo not drawn)
< 50%

Query the reported inhibition at 1 µM for TNF-α; item: Cn1ncc(-c2cc(N[C@H]3CC[C@H](NCCCCCCCCNC(=O)NCc4cc5c(s4)C(=O)N(C4CCC(=O)NC4=O)C5)CC3)ncc2F)c1CC1CC1 (stereo partly drawn)
< 50%

Query the reported inhibition at 1 µM for TNF-α; item: `Cn1ncc(-c2nc(N[C@H]3CC[C@H](NCCOCCOCCNCc4ccc(OCc5scc6c5CN([C@H]5CCC(=O)NC5=O)C6=O)cc4)CC3)ncc2Cl)c1CC1CC1`
> 90%
